Notes on pIC50 obtained with 5 HT2C receptor (Homo sapiens, UniProt P28335).
Sequence (P28335 33-458): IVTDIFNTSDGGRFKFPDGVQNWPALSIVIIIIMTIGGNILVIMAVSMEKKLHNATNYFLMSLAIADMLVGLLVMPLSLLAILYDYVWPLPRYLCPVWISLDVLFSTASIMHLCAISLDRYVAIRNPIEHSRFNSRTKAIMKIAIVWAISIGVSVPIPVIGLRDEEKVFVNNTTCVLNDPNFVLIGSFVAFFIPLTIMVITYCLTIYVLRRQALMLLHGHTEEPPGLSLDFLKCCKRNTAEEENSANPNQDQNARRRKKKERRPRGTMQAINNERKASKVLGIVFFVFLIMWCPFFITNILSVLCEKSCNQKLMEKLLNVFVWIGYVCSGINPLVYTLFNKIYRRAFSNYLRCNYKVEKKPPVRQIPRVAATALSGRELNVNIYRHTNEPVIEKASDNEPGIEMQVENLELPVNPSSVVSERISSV
Reminder that pIC50 is minus the log10 of a molar concentration.

Examples with answers:
molecule	testedSystem	pIC50
Fc1ccccc1-c1c(CCN2CCOCC2)cnn1-c1ccc(-c2ccccc2)cc1	5 HT2C receptor (Homo sapiens, UniProt P28335)	6.00
CCN(CC)Cc1cnn(-c2ccc(-c3ccc(F)cc3)cc2)c1-c1ccc(Cl)cc1	5 HT2C receptor (Homo sapiens, UniProt P28335)	6.00
COc1ccc(-c2ccc(-n3ncc(CN4CCN(C)CC4)c3-c3ccccc3F)cc2)cc1	5 HT2C receptor (Homo sapiens, UniProt P28335)	5.94
CN(C)Cc1cnn(-c2ccc(-c3ccccc3)cc2)c1-c1ccccc1F	5 HT2C receptor (Homo sapiens, UniProt P28335)	6.35
CN1CCC(N(C)Cc2cnn(-c3ccc(-c4ccccc4)cc3)c2-c2ccccc2F)C1 (centres unmarked)	5 HT2C receptor (Homo sapiens, UniProt P28335)	7.08
CN1CCN(Cc2cnn(-c3ccc(C(F)(F)F)cn3)c2-c2ccccc2F)CC1	5 HT2C receptor (Homo sapiens, UniProt P28335)	6.00
OCc1cnn(-c2ccc(-c3ccc(F)cc3)cc2)c1-c1ccc(Cl)cc1	5 HT2C receptor (Homo sapiens, UniProt P28335)	6.00
CN(C)Cc1cnn(-c2ccc(C(F)(F)F)cn2)c1-c1ccccc1F	5 HT2C receptor (Homo sapiens, UniProt P28335)	6.00
CCN(CC)Cc1cnn(-c2ccc(-c3ccc(F)cc3)cc2)c1-c1ccccc1Cl	5 HT2C receptor (Homo sapiens, UniProt P28335)	6.00
OCCNCc1cnn(-c2ccc(-c3ccccc3)cc2)c1-c1ccccc1F	5 HT2C receptor (Homo sapiens, UniProt P28335)	6.38

// CC(C)N1CCN(Cc2cnn(-c3ccc(-c4ccc(F)cc4)cc3)c2-c2cccc(Cl)c2)CC1 : pIC50 value = 6.00

// c1ccc(-c2ccc(-n3ncc(CNCc4ccccn4)c3-c3ccccc3)cc2)cc1 : pIC50 value = 6.00

// CN1CCN(Cc2cnn(-c3ccc(C(F)(F)F)cc3)c2-c2ccccc2F)CC1 : pIC50 value = 6.31

// CN1CCN(NCc2cnn(-c3ccc(-c4ccccc4)cc3)c2-c2ccccc2F)CC1 : pIC50 value = 6.33

// CN1CCN(Cc2cnn(-c3ccc(-c4ccc5c(c4)OCCO5)cc3)c2-c2ccccc2F)CC1 : pIC50 value = 6.06

// CN1CCN(Cc2cnn(-c3ccc(-c4ccc(F)cc4)cc3)c2-c2ccccc2F)CC1 : pIC50 value = 6.67

// O=S1(=O)CCN(Cc2cnn(-c3ccc(-c4ccccc4)cc3)c2-c2ccccc2F)CC1 : pIC50 value = 6.00

* * *

Molecular target: UniProtKB P14842
Sequence (P14842 whole entry): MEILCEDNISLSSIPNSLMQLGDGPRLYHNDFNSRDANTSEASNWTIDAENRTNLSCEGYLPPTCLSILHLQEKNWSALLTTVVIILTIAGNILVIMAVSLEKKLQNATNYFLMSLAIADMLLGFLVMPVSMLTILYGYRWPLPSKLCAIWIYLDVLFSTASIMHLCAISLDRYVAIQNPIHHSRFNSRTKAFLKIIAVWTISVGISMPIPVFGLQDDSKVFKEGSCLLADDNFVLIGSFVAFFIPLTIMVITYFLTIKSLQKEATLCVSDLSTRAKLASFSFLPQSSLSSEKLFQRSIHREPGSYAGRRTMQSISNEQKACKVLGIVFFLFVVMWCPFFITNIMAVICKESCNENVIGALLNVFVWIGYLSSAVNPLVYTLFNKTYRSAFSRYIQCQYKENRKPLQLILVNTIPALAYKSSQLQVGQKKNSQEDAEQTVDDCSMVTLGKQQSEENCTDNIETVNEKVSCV
Assay: in-vitro affinity to 5-HT2A receptors, displacement of [3H]ketanserine (Example A1)
Assay type: binding
Settings: read-out: HT2A IC50
measurementKind: IC50 (nM)
Express your answer in nM, writing the number without its unit.

Examples with answers:
compound	testedSystem	readoutUnit	IC50
CN(C)CCN(C)Cc1cnn(-c2ccc(-c3ccccc3)cc2)c1-c1ccccc1F	UniProtKB P14842	nM	20
CN(C)Cc1ccccc1-c1ccc(-n2ncc(CN3CCN(C)CC3)c2-c2ccccc2F)cc1	UniProtKB P14842	nM	81
Fc1ccccc1-c1c(CN2CCN3CCc4ccccc4C3C2)cnn1-c1ccc(-c2ccccc2)cc1 (stereo not drawn)	UniProtKB P14842	nM	280

// switching to the query compound
// Cn1cccc1CNCc1cnn(-c2ccc(-c3ccccc3)cc2)c1-c1ccccc1 : IC50 value = 26
